The measured values listed here are drawn from PubChem BioAssay.

Test system: Human papillomavirus type 1a E7 protein (residues 1-88)
Experiment: HPV1a E7 small-molecule binders, primary screen, biochemical, small-molecule microarray, residues 1-88, 635 nm (AID 1129)
Settings: small-molecule microarray binding, fluorescence 635 nm; higher = more signal
Reported composite z-score maps to class as: bottom end (below 0.06), midrange (0.06 to below 0.9), top end (0.9 or more)

1. C[C@@H]1CCC2C(=O)N(Cc3ccccc3)C[C@@H](O)CN2[C@H]1c1ccc(Br)cc1 (stereo not given in full) : bottom end
2. O=C1[C@H]2[C@H]3[C@H](O)[C@H](O)CC(=NO[C@@H]4O[C@H](CO)[C@@H](O)[C@H](O)[C@H]4O)[C@@H]3CC[C@H]2C(=O)N1c1ccc(F)cc1F : midrange
3. CC[C@@H](c1ccccc1)n1c(=O)n2n(c1=O)[C@H]1[C@H](O)[C@@H]3O[C@@H]3C(=NOCC(C)C)[C@H]1CC2 : bottom end
4. C[C@@H](c1ccccc1)N1C(=O)[C@H]2[C@H]3[C@H](O)C=CC(=O)[C@@H]3CC[C@H]2C1=O : midrange
5. COC(=O)[C@@H]1N=C(c2ccc(OCCCO)cc2)O[C@@H]1c1ccccc1N=[N+]=[N-] : top end
6. CO[C@@H]1COC(=O)CC=C[C@@H](C)[C@@H]2C=C[C@H](O)[C@@H](COC(=O)CCC[C@H]1C)O2 : bottom end
7. CC(=O)O[C@H]1C2=C(C(=O)[C@@H]3O[C@@H]31)[C@H]1C(C)O[C@@H]2[C@@]23C(=O)[C@@H]4O[C@@H]4[C@@H](O)C2=CO[C@H](C)[C@@H]13 (stereo not given in full) : midrange
8. COc1ccc(OC[C@H]2Cc3c(-c4ccccc4)nc4c(c3CO2)CN(CCOc2ccccc2)CC4)cc1 : top end
9. CO[C@H]1COC(=O)[C@H](C)NC(=O)[C@@H](C)COC(=O)CC=C[C@@H]1C : bottom end
10. COCCCNC(=O)[C@]1(Cc2ccccc2)N=C(c2ccc(OCCCO)cc2)O[C@@H]1c1ccccc1 : top end
11. COc1ccc(-c2ccc3c(n2)CCCN3CC(O)CN2CCCc3nc(C)c(C)cc32)cc1 (stereo not given) : midrange
12. Cn1c(=O)n2n(c1=O)[C@H]1[C@H](O)[C@@H]3O[C@@H]3C(=NOC[C@@H](O)COCc3ccco3)[C@H]1CC2 : midrange
13. CN1C(=O)[C@@]2(CCC(=O)OC(C)(C)C)N=C(c3ccc(OCCCO)cc3)O[C@H]2c2ccccc21 : top end
14. O=C1[C@H]2[C@H]3[C@H](O)[C@H](O)CC(=NOC[C@@H](O)COCc4ccco4)[C@H]3CC[C@H]2C(=O)N1C1CCCCC1 : bottom end
15. CCOC(=O)[C@H](Cc1ccccc1)NC(=O)CCC1CC(OC(=O)NCc2ccc3c(c2)OCO3)CC2(CCCC(COC(=O)NCC3CCCCC3)O2)O1 (stereo not given in full) : top end
